Test system: CCRF-CEM (childhood T-cell acute lymphoblastic leukaemia)
methodSummary: MTS cytotoxicity assay, CCRF-CEM
Type: cell-based
runConditions: Homo sapiens, MTS assay, 72-h incubation, mean ± SD of 3 independent experiments, read-out: IC50 cytotoxic activity CCRF-CEM
Kindly supply the reported pIC50 values for the records listed here.
The value called pIC50 is obtained by taking minus log10 of the concentration in mol/L.

Prompt: Give pIC50 only, for C[C@]12CC[C@@H]3c4ccc(O)cc4CC[C@H]3[C@@H]1CC[C@@]2(O)c1cn(Cc2cccc(Cn3cc([C@]4(O)CC[C@H]5[C@@H]6CCc7cc(O)ccc7[C@H]6CC[C@@]54C)nn3)n2)nn1 [ED, reference compound] , using CCRF-CEM (childhood T-cell acute lymphoblastic leukaemia) data.
Response: 6.31

Prompt: Give pIC50 only, for COc1cc(Cn2cc([C@]3(O)CC[C@H]4[C@@H]5CCc6cc(O)ccc6[C@H]5CC[C@@]43C)nn2)cc(Cn2cc([C@]3(O)CC[C@H]4[C@@H]5CCc6cc(O)ccc6[C@H]5CC[C@@]43C)nn2)c1 [ED3] , using CCRF-CEM (childhood T-cell acute lymphoblastic leukaemia) data.
Response: 6.42

Prompt: Give pIC50 only, for C[C@]12CC[C@@H]3c4ccc(O)cc4CC[C@H]3[C@@H]1CC[C@@]2(O)c1cn(Cc2cc(Cn3cc([C@]4(O)CC[C@H]5[C@@H]6CCc7cc(O)ccc7[C@H]6CC[C@@]54C)nn3)cc(OCCO)c2)nn1 [ED5] , using CCRF-CEM (childhood T-cell acute lymphoblastic leukaemia) data.
Response: 6.15

Prompt: Give pIC50 only, for COc1cc2c(cc1O)CC[C@@H]1[C@@H]2CC[C@]2(C)[C@@H](O)CC[C@@H]12 [ME, 2-methoxyestradiol, reference compound] , using CCRF-CEM (childhood T-cell acute lymphoblastic leukaemia) data.
Response: 5.79

* * *

Kindly supply the reported pIC50 values for the records listed here.
Tested on: HCT116p53−/− (p53 gene null variant of HCT116)
methodSummary: MTS cytotoxicity assay, HCT116p53−/−
Assay type: cell-based
runConditions: Homo sapiens, HCT-116, 72 h, read-out: IC50 cytotoxic activity HCT116p53-
The value called pIC50 is obtained by taking minus log10 of the concentration in mol/L.

Prompt: For C[C@]12CC[C@@H]3c4ccc(O)cc4CC[C@H]3[C@@H]1CC[C@@]2(O)c1cn(Cc2cccc(Cn3cc([C@]4(O)CC[C@H]5[C@@H]6CCc7cc(O)ccc7[C@H]6CC[C@@]54C)nn3)c2)nn1 , write its pIC50.
Response: 5.82

Prompt: For Cc1cc(C)c(Cn2cc([C@]3(O)CC[C@H]4[C@@H]5CCc6cc(O)ccc6[C@H]5CC[C@@]43C)nn2)cc1Cn1cc([C@]2(O)CC[C@H]3[C@@H]4CCc5cc(O)ccc5[C@H]4CC[C@@]32C)nn1 , write its pIC50.
Response: 5.71

Prompt: For C[C@]12CC[C@@H]3c4ccc(O)cc4CC[C@H]3[C@@H]1CC[C@@]2(O)c1cn(Cc2ccc(O)c(Cn3cc([C@]4(O)CC[C@H]5[C@@H]6CCc7cc(O)ccc7[C@H]6CC[C@@]54C)nn3)n2)nn1 , write its pIC50.
Response: 4.98

* * *

methodSummary: MTS cytotoxicity assay, MRC-5
Type: cell-based
runConditions: human
measuredMetric: IC50 at 72 h

Prompt: For Cc1cc(Cn2cc([C@]3(O)CC[C@H]4[C@@H]5CCc6cc(O)ccc6[C@H]5CC[C@@]43C)nn2)c(O)c(Cn2cc([C@]3(O)CC[C@H]4[C@@H]5CCc6cc(O)ccc6[C@H]5CC[C@@]43C)nn2)c1 , write its IC50 at 72 h.
Response: > 50 µM

Prompt: For CC(=O)Oc1c(Cn2cc([C@]3(O)CC[C@H]4[C@@H]5CCc6cc(O)ccc6[C@H]5CC[C@@]43C)nn2)cc(C)cc1Cn1cc([C@]2(O)CC[C@H]3[C@@H]4CCc5cc(O)ccc5[C@H]4CC[C@@]32C)nn1 , write its IC50 at 72 h.
Response: > 50 µM

Prompt: For C[C@]12CC[C@@H]3c4ccc(O)cc4CC[C@H]3[C@@H]1CC[C@@]2(O)c1cn(Cc2ccc(O)c(Cn3cc([C@]4(O)CC[C@H]5[C@@H]6CCc7cc(O)ccc7[C@H]6CC[C@@]54C)nn3)n2)nn1 , write its IC50 at 72 h.
Response: 14.2 µM

Prompt: For C[C@]12CC[C@@H]3c4ccc(O)cc4CC[C@H]3[C@@H]1CC[C@@]2(O)c1cn(Cc2cc(O)cc(Cn3cc([C@]4(O)CC[C@H]5[C@@H]6CCc7cc(O)ccc7[C@H]6CC[C@@]54C)nn3)c2)nn1 , write its IC50 at 72 h.
Response: > 50 µM

Prompt: For CC(=O)Oc1cc(Cn2cc([C@]3(O)CC[C@H]4[C@@H]5CCc6cc(O)ccc6[C@H]5CC[C@@]43C)nn2)cc(Cn2cc([C@]3(O)CC[C@H]4[C@@H]5CCc6cc(O)ccc6[C@H]5CC[C@@]43C)nn2)c1 , write its IC50 at 72 h.
Response: > 50 µM

Prompt: For COc1c(Cn2cc([C@]3(O)CC[C@H]4[C@@H]5CCc6cc(O)ccc6[C@H]5CC[C@@]43C)nn2)cc(C)cc1Cn1cc([C@]2(O)CC[C@H]3[C@@H]4CCc5cc(O)ccc5[C@H]4CC[C@@]32C)nn1 , write its IC50 at 72 h.
Response: > 50 µM

Prompt: For C[C@]12CC[C@@H]3c4ccc(O)cc4CC[C@H]3[C@@H]1CC[C@@]2(O)c1cn(Cc2cccc(Cn3cc([C@]4(O)CC[C@H]5[C@@H]6CCc7cc(O)ccc7[C@H]6CC[C@@]54C)nn3)c2)nn1 , write its IC50 at 72 h.
Response: > 50 µM

Prompt: For Cc1cc(C)c(Cn2cc([C@]3(O)CC[C@H]4[C@@H]5CCc6cc(O)ccc6[C@H]5CC[C@@]43C)nn2)cc1Cn1cc([C@]2(O)CC[C@H]3[C@@H]4CCc5cc(O)ccc5[C@H]4CC[C@@]32C)nn1 , write its IC50 at 72 h.
Response: 3.2 µM
